- Test system: SF-295 CNS
- test.details: NCI-60 one-dose screen, 48 h (100 = growth as untreated, 0 = no growth, -100 = all killed)
- condition.set: 10 µM unless noted
This is part of a sample that, as a whole, favours compounds with a hit. Of some 83,000 tested, about 20% had one in any assay.

>  <line.notation>
C=C1C(=O)O[C@H]2[C@H]1CC/C(CNC(=O)/C1=C/CC[C@@]3(C)O[C@H]3[C@H]3OC(=O)C(=C)[C@@H]3CC1)=C\CC[C@@]1(C)O[C@@H]21

>  <growth, %>
97.6

$$$$
>  <line.notation>
Cc1cc2c(cc1C)N(C(=O)CCl)CCN2C(=O)CCl

>  <growth, %>
11.8

$$$$
>  <line.notation>
O=C(Nc1ccc(-n2cc(-c3ccncc3)c(-c3ccc(O)c(Cl)c3)n2)cc1)Nc1cc(C(F)(F)F)cc(C(F)(F)F)c1

>  <growth, %>
19.6

$$$$
>  <line.notation>
COc1ccc(-c2nnc(SCC(=O)Nc3ccc(C(=O)/C=C/c4ccc(OC)c(OC)c4)cc3)o2)cc1

>  <growth, %>
96.5

$$$$
>  <line.notation>
O=C(Nc1ccc(-n2ccc3c(NC(=O)c4ccccc4)nccc32)cc1)Nc1ccc(Cl)c(Cl)c1

>  <growth, %>
-67

$$$$
>  <line.notation>
O=C(Nc1ccc(F)cc1)Nc1ccc(Br)c(C(F)(F)F)c1

>  <growth, %>
3

$$$$
>  <line.notation>
C[C@]12CC[C@@H]3c4ccc(O)c(N)c4CC[C@H]3[C@@H]1CC[C@@H]2O

>  <growth, %>
108

$$$$
>  <line.notation>
COc1cc(-c2nc(SCC(=O)Nc3ccc(C(C)=O)cc3)[nH]c(=O)c2C#N)cc(OC)c1OC

>  <growth, %>
3.4

$$$$
>  <line.notation>
COc1ccc(NC(=O)Nc2ccc(-c3ccc(OC)c(OC)c3)nc2C)cc1

>  <growth, %>
102

$$$$
>  <line.notation>
Cc1ccc2c(c1)Nc1ccc(C)cc1C2(C)C

>  <growth, %>
101

$$$$
>  <line.notation>
FC(F)(F)c1cccc([Si](F)(c2cccc(C(F)(F)F)c2)c2cccc(C(F)(F)F)c2)c1

>  <growth, %>
69.2

$$$$
>  <line.notation>
Nc1nccc2c1ccn2-c1ccc(NC(=O)Nc2cccc(C(F)(F)F)c2)cc1

>  <growth, %>
78.2

$$$$
>  <line.notation>
OCCOCC(F)(F)F

>  <growth, %>
103

$$$$

Entry source: PubChem BioAssay (NCI)
